Items are presented alongside their recorded LC retention time.
- protocol-notes: RP, Waters ACQUITY UPLC BEH C18, 100 × 1 mm, 1.7 µm, 50 °C, 0.3 mL/min, estimated dead time 0.17 min; A: water + 10 mM ammonium bicarbonate; B: 10% water + 90% methanol + 10 mM ammonium bicarbonate; gradient (min/%B) 0/0 15/100 21/100 22/0 30/0
- experimental-parameters: stereoisomer not certain
measured-metric: LC retention time (min)

> print(dat)
                                    compound    measured.metric  result.unit  recorded.number
 1  CC(Cl)COP(=O)(OCC(C)Cl)OCC(C)Cl (stereo not drawn) [Tris(2-chloropropyl) phosphate]  LC retention time          min             14.6
 2                      CSC(=O)c1cccc2nnsc12  LC retention time          min               14
 3  CC(=O)OCC(=O)C12OC3(CCCC3)OC1CC1C3CCC4=CC(=O)C=CC4(C)C3(F)C(O)CC12C (stereo not drawn) [Amcinonide]  LC retention time          min               16
 4                        CCNc1nc(N)nc(Cl)n1  LC retention time          min             8.17
 5       Oc1c(Br)cc(Cl)cc1Cc1cc(Cl)cc(Br)c1O  LC retention time          min             16.4
 6  CCCCC(CC)COP(=O)(Oc1ccccc1)Oc1ccccc1 (stereo not drawn) [2-Ethylhexyldiphenyl phosphate]  LC retention time          min             18.1
 7  COc1cc2c(cc1OC)C1Cc3ccc(OC)c(OC)c3CN1CC2 (stereo not drawn) [Tetrahydropalmatin]  LC retention time          min             14.8
 8  C#CC1(O)CCC2C3CCC4=CC(=O)CCC4C3CCC21C (stereo not drawn)  LC retention time          min             14.2
 9                   Cc1cc(C)nc(Nc2ccccc2)n1  LC retention time          min             14.2
10  O=C1CC2OCC=C3CN4CCC56c7ccccc7N1C5C2C3CC46 (single isomer, unassigned; (-)) [(-)-Strychnine]  LC retention time          min             12.3
11  CC(C)C(N)C(=O)OCC(CO)OCn1cnc2c(=O)[nH]c(N)nc21 (stereo not drawn)  LC retention time          min             7.16
12     CNc1cnn(-c2cccc(C(F)(F)F)c2)c(=O)c1Cl  LC retention time          min             13.5
13  O=C(O)C=Cc1ccccc1O [2-Hydroxycinnamic acid]  LC retention time          min                5
14  Cc1cccc(Nc2ccncc2S(=O)(=O)NC(=O)NC(C)C)c1 [Torasemide]  LC retention time          min             12.4
15  CCCCC(CC)COC(=O)C(C#N)=C(c1ccccc1)c1ccccc1 (stereo not drawn)  LC retention time          min             18.2
16  NC(=O)N1c2ccccc2CC(=O)c2ccccc21 [Oxcarbazepine]  LC retention time          min             11.7
17             Nc1ccc(S(=O)(=O)Nc2ncccn2)cc1  LC retention time          min             2.61
18  NS(=O)(=O)c1cc2c(cc1Cl)NCNS2(=O)=O [Hydrochlorothiazide]  LC retention time          min             4.67

---

Items are presented alongside their recorded LC retention time.
- protocol-notes: RP, Waters ACQUITY UPLC BEH C18, 100 × 1 mm, 1.7 µm, 50 °C, 0.3 mL/min, estimated dead time 0.17 min; A: water + 0.1% formic acid + 20 mM ammonium formate; B: methanol + 0.1% formic acid + 20 mM ammonium formate; gradient (min/%B) 0/0 15/100 21/100 22/0 30/0
- experimental-parameters: stereoisomer not certain
measured-metric: LC retention time (min)

> print(dat)
                                   molecule    measured.metric  result.unit  recorded.number
1         O=C(O)CCCCCCC(=O)O [Suberic_acid]  LC retention time          min              9.6
2  CC(=O)c1cc2c(cc1C)C(C)(C)C(C)C2(C)C (stereo not given) [Phantolide]  LC retention time          min             17.5
3  CN1CCN=C(c2ccccc2)c2cc(Cl)ccc21 [Medazepam]  LC retention time          min             11.4
4  CON=C(Cc1cccnc1)c1ccc(Cl)cc1Cl [Pyrifenox]  LC retention time          min             14.3
5  O=S(=O)(c1ccc(Cl)cc1)c1ccc(Cl)cc1 [Bis(4-chlorophenyl)sulfone]  LC retention time          min             14.9

---

Items are presented alongside their recorded LC retention time.
- protocol-notes: RP, Waters ACQUITY UPLC BEH C18, 100 × 1 mm, 1.7 µm, 50 °C, 0.3 mL/min, estimated dead time 0.17 min; A: water + 10 mM ammonium bicarbonate; B: 10% water + 90% methanol + 10 mM ammonium bicarbonate; gradient (min/%B) 0/0 15/100 21/100 22/0 30/0
- experimental-parameters: stereoisomer not certain

compound	LC retention time (min)
Oc1ccc(C(c2ccccc2)(c2ccccc2)c2ccc(O)cc2)cc1 [Bisphenol BP]	15.9
O=C(O)C(F)(F)C(F)(F)C(F)(F)C(F)(F)C(F)(F)C(F)(F)C(F)(F)F [Perfluorooctanoic acid]	14.8
CCOc1cc(C(C)(C)C)ccc1C1COC(c2c(F)cccc2F)=N1 (configuration not stated) [Etoxazole]	17.8
CCN1CCCC1CNC(=O)c1cc(S(N)(=O)=O)ccc1OC (stereo not drawn) [(s)-(-)-Sulpiride]	10.3
O=C(O)C(F)(F)C(F)(F)C(F)(F)C(F)(F)C(F)(F)C(F)(F)C(F)(F)C(F)(F)C(F)(F)C(F)(F)C(F)(F)C(F)(F)C(F)(F)F [Perfluorotetradecanoic acid]	17.7
CCOc1ccc(C(C)(C)COCc2cccc(Oc3ccccc3)c2)cc1 [Etofenprox]	14.1
COc1cc2nc(N3CCN(C(=O)C4COc5ccccc5O4)CC3)nc(N)c2cc1OC (configuration not stated) [Doxazosin]	14
CCCCCC=CCC=CCCCCCCCC(=O)O [Linoleic acid]	17.6
CC(C)(C)C(O)C(Cc1ccc(Cl)cc1)n1cncn1 (configuration not stated) [Paclubutrazole]	14.6
O=S(=O)(O)NC1CCCCC1 [Cyclamate]	6.33
O=C(c1ccccc1)C1CCCCC1 [Cyclohexylphenylketone]	15.9
NC(=Nc1ccccc1)Nc1ccccc1 [1,3-Diphenylguanidine]	10
NC(=NCCCCCCN=C(N)N=C(N)Nc1ccc(Cl)cc1)N=C(N)Nc1ccc(Cl)cc1 [Chlorohexidine]	6.38
CCN(CC)c1ccc2c(C)cc(=O)oc2c1 [7-Diethylamino-4-methylcoumarin]	14.7
Cc1c(C(=O)c2c[nH]n(C)c2=O)ccc(S(C)(=O)=O)c1C1=NOCC1 [Topramezone]	7.42
COCC(=O)N(c1c(C)cccc1C)N1CCOC1=O [Oxadixyl]	11.2
CC(=O)Nc1c(I)c(NC(C)=O)c(I)c(C(=O)O)c1I [Diatrizoate]	3.99

---

- protocol-notes: RP, Waters ACQUITY UPLC BEH C18, 100 × 1 mm, 1.7 µm, 50 °C, 0.3 mL/min, estimated dead time 0.17 min; A: water + 0.1% formic acid + 20 mM ammonium formate; B: methanol + 0.1% formic acid + 20 mM ammonium formate; gradient (min/%B) 0/0 15/100 21/100 22/0 30/0
- experimental-parameters: stereoisomer not certain
measured-metric: LC retention time (min)

> print(dat)
                                    compound    measured.metric  recorded.number
 1  CN1C(=O)CC(C)(c2ccccc2)C1=O (stereo unspecified) [Methsuximide]  LC retention time             11.2
 2                  CCNC(=O)NC(=O)C(C#N)=NOC  LC retention time             9.68
 3  CC(C)N(C(=O)SCC(Cl)=C(Cl)Cl)C(C)C [Triallate]  LC retention time             17.3
 4                CC(C)Nc1nc(Cl)nc(NC(C)C)n1  LC retention time               14
 5                      CCCOC(=O)c1ccc(O)cc1  LC retention time             12.9
 6                  CON(C)C(=O)Nc1ccc(Cl)cc1  LC retention time             12.2
 7  N#Cc1c(O)c(Cl)c(Cl)c(C#N)c1Cl [Chlorothalonil-4-hydroxy]  LC retention time             12.3
 8          CCOP(=S)(OCC)Oc1cc(C)nc(C(C)C)n1  LC retention time             15.7
 9           CC(C)(C)Nc1nc(=O)[nH]c(=O)[nH]1  LC retention time             13.3
10  CCc1cccc(C)c1N1C(=O)COCC1C (stereo unspecified)  LC retention time             12.6
11                    O=C1CC[C@@H](C(=O)O)N1  LC retention time              7.7
